Where do these numbers come from? They come from the Human Domainome abundance scans (Beltran et al. 2025).

B1: POU domain, class 2, transcription factor 2, residues 200 to 269; numbered along this chain, P09086 (parent)
chain: LEELEQFARTFKQRRIKLGFTQGDVGLAMGKLYGNDFSQTTISRFEALNLSFKNMCKLKPLLEKWLNDAE

Variants of: B1
Assay: abundance fitness (aPCA) (normalised: wild type 0, dead -1); higher = more abundant; growth selection in yeast, the domain comes from the species named
Conditions: Homo sapiens
Measured abundance fitness accompanies every entry in the list below.
Field format: numeric only.

These recorded examples may help you get a feel for the data.
F45A : -0.78
I16R : -0.059
G34E : 0.052

abundance fitness recorded for this variant, `F45W` , is -0.205

Recorded result, `F7E` , abundance fitness: -0.357

abundance fitness in this record for `F20R` : -0.083

// recorded abundance fitness for `A28P` : -0.616

The variant listed as `L58F` shows abundance fitness equal to 0.005

The variant listed as `K59Q` shows abundance fitness equal to -0.094

Entry `R44N` ; abundance fitness = -0.482
